# METHOD NOTES: Stability in cryopreserved hepatocytes, rat
Rule: Trep Concentration (μM) 30 min under 0.04 µM gives Not met, otherwise Met.

Challenge: Please tell me: is the molecule CCCCCC(CCC1C(O)CC2Cc3c(cccc3OCC(=O)O)CC21)OC(C)=O (centres unmarked) [XLIII] at or over 0.04 µM in terms of Trep Concentration (μM) 30 min?
Response given: Met

Challenge: Could you verify whether the entry CCCCCC(CCC1C(O)CC2Cc3c(cccc3OCC(=O)O)CC21)OC(=O)CCC(=O)O (centres unmarked) [XX] shows Trep Concentration (μM) 30 min of no less than 0.04 µM?
Response given: Met

Challenge: Hello, I need to know if CCCCCC(CCC1C(O)CC2Cc3c(cccc3OCC(=O)O)CC21)OCCN1CCOCC1 (centres unmarked) [L] has measured Trep Concentration (μM) 30 min not below 0.04 µM. Thanks!
Response given: Not met

Challenge: Is the recorded value of Trep Concentration (μM) 30 min equal to or greater than 0.04 µM for this molecule? CCCCCC(CCC1C(O)CC2Cc3c(cccc3OCC(=O)O)CC21)OC(=O)C12CC3CC(CC(C3)C1)C2 (centres unmarked) [LXIX]
Response given: Met

Challenge: Determine whether measured Trep Concentration (μM) 30 min meets or exceeds 0.04 µM for CCCCCC(CCC1C(O)CC2Cc3c(cccc3OCC(=O)O)CC21)Oc1ccccc1C(=O)O (centres unmarked) [LVI]
Response given: Not met

Challenge: Hi team, for CCCCC[C@H]1CC[C@@H]2[C@H]3Cc4cccc(OCC(=O)O)c4C[C@H]3C[C@H]2OC(=O)O1 [XXIV] , is the recorded Trep Concentration (μM) 30 min at or above 0.04 µM?
Response given: Met

Challenge: Check if Trep Concentration (μM) 30 min >= 0.04 µM (inclusive). Item: CCCCCC(CCC1C(O)CC2Cc3c(cccc3OCC(=O)O)CC21)OC(=O)C(C)C (centres unmarked) [LXVII]
Response given: Met

Challenge: Say whether CCCCCC(CCC1C(O)CC2Cc3c(cccc3OCC(=O)O)CC21)OC(=O)NC (centres unmarked) [VIII] shows Trep Concentration (μM) 30 min of 0.04 µM or more.
Response given: Not met

====

# METHOD NOTES: Stability in cryopreserved hepatocytes, rat
# MEASUREMENT CONDITIONS: rat
PARAMETER MEASURED: Mono AUC (treprostinil formed) (µmol·min/L)
Give the number; µmol·min/L is assumed, so skip it.

For reference, reported Mono AUC (treprostinil formed) for CCCCCC(CCC1C(O)CC2Cc3c(cccc3OCC(=O)O)CC21)OP(=O)(O)O (stereo not drawn) [Prodrug VI] stands at 66.9

For reference, reported Mono AUC (treprostinil formed) for CCCCCC(CCC1C(O)CC2Cc3c(cccc3OCC(=O)O)CC21)OC(=O)OC (stereo not drawn) [Prodrug IV] stands at 70.0

So for CCCCCC(CCC1C(OC(=O)CC)CC2Cc3c(cccc3OCC(=O)O)CC21)OC(=O)CC (stereo not drawn) [Prodrug LXX, treprostinil dipropionate] , the logged Mono AUC (treprostinil formed) turned out to be 56.1

Please fill in: Mono AUC (treprostinil formed) reported for CCCCCC(CCC1C(OC(=O)OC)CC2Cc3c(cccc3OCC(=O)O)CC21)OC(=O)OC (stereo not drawn) [Prodrug LXXI, treprostinil dicarbonate] = 39.8

Record summary for CCCCCC(CCC1C(O)CC2Cc3c(cccc3OCC(=O)O)CC21)OC(=O)CC (stereo not drawn) [Prodrug LV] : reported Mono AUC (treprostinil formed) = 49.3

Mono AUC (treprostinil formed) reported for this compound CCCCCC(CCC1C(O)CC2Cc3c(cccc3OCC(=O)O)CC21)OC(C)=O (stereo not drawn) [Prodrug XLIII] : 41.4
